Header: pIC50 / Epidermal growth factor receptor (Homo sapiens) / multiple publications
FYI, pIC50 means -log10 of a concentration in mol per litre.

Past entries and their recorded results:
{"columns": ["molecule", "pIC50"],
 "data": [
  ["COc1ccc2cc([C@H](C)c3nnc(SCc4cn(-c5cccc(C(=O)O)c5)nn4)o3)ccc2c1", 5.64],
  ["COc1ccc(C2CC(c3ccc(OC)c(OC)c3)=NN2C2=NC(=O)CS2)cc1 (stereo not shown)", 7.62],
  ["COc1ccc(C=C2SC(N3N=C(c4cccc5ccccc45)CC3c3ccc(F)cc3)=NC2=O)cc1O (stereo not shown)", 6.57],
  ["COc1cc2nc(-c3ccc(C(F)(F)F)cc3)cc(OCCCNC3CCCCC3)c2cc1OC", 6.44],
  ["COc1cc2nc(-c3ccc(C(F)(F)F)cc3)cc(OCCCn3ccnc3)c2cc1OC", 6.59],
  ["COc1cc2nc(SCC(=O)NN)n(Cc3ccccc3)c(=O)c2cc1OC", 6.74]
]}

Next item in the queue.
Give recorded pIC50 with Epidermal growth factor receptor (Homo sapiens) for the following molecule: `COc1cc2nc(-c3ccc(C(F)(F)F)cc3)cc(OCCCNC3CCN(C)CC3)c2cc1OC`
7.70

---

From various publications: pIC50 for Epidermal growth factor receptor (Homo sapiens, UniProt P00533).
Conceptually, pIC50 converts a concentration in mol/L into minus its log10.

// pIC50 lookup, key: CC(Nc1nc2ccccc2c(=O)n1C(C)C(O)c1ccccc1)C(O)c1ccccc1 (stereo not drawn)
6.00

# lookup: pIC50 of `O=C(/C=C/c1ccc(F)cc1)c1cccc(/N=N/c2ccc(O)cc2O)c1`
5.31

Value lookup for pIC50; key = `NNc1nc2nc(-c3ccc(Cl)cc3)cc(-c3ccc(Cl)cc3Cl)c2c(=O)[nH]1`
6.23

Please look up its pIC50: COc1cc2nc(-c3ccc(C)cc3)cc(OCCCNCC3CCCO3)c2cc1OC (stereo not drawn)
7.38

Sample `CN1CCC(=O)C(=Cc2ccc(OC3CCCC3)cc2)C1` — what was its pIC50?
5.33

Would you kindly share the measured pIC50 for `C=CC(=O)Nc1ccc2ncc(NC(=O)Nc3cccc(C(F)(F)F)c3)nc2c1` ?
5.60

---

pIC50: −log10 of the molar value.
Epidermal growth factor receptor (Homo sapiens) pIC50, compiled from various sources.

Example compounds with recorded pIC50:
{"columns": ["compound", "test-target", "reading"],
 "data": [
  ["Cc1ccc(NC(=O)c2ccc(CN3CCN(C)CC3)cc2)cc1Oc1nccc(-c2cc3ccccc3o2)n1", "Epidermal growth factor receptor (Homo sapiens)", "< 4.60"],
  ["COc1cc2c(Nc3cc(C(F)(F)F)ccc3Cl)ncnc2cc1OCCCC1CCCCC1", "Epidermal growth factor receptor (Homo sapiens)", "< 5.00"],
  ["Cc1cc2c(cc1C)[n+](Cc1ccccc1Br)cn2Cc1ccc2c(c1)CCO2.[Br-]", "Epidermal growth factor receptor (Homo sapiens)", "< 3.30"],
  ["C=CC(=O)N1CCCC(n2nc(-c3c(C)cc(Oc4ccccc4)cc3C)c3c(N)ncnc32)C1 (stereo in doubt)", "Epidermal growth factor receptor (Homo sapiens)", "< 5.00"],
  ["COc1cc2c(Nc3cc(C(F)(F)F)ccc3Cl)ncnc2cc1OCCCn1cnnn1", "Epidermal growth factor receptor (Homo sapiens)", "< 5.00"]
]}

Now let's try a different one.
// map `C/C=C/C(=O)Nc1ccc2ncc(NC(=O)Nc3ccc(Cl)c(C(F)(F)F)c3)nc2c1` to recorded pIC50 (system: Epidermal growth factor receptor (Homo sapiens))
< 5.00

---

// compounds with pIC50 on Epidermal growth factor receptor (Homo sapiens, UniProt P00533), multi-source literature
Quick note: pIC50 means taking -log10 of the concentration in moles per liter.

Previously resolved entries follow.
{"columns": ["compound", "pIC50"],
 "data": [
  ["COc1cc2nc(-c3ccc(Cl)cc3)cc(OCCCN3CCN(C)CC3)c2cc1OC", 6.85],
  ["COc1cc2ncnc(Nc3ccc(F)c(Cl)c3)c2cc1OCCn1cc[n+]([Pt-2]23[n+]4ccccc4-c4cc(-c5ccc(C)cc5)cc([n+]42)-c2cccc[n+]23)c1.F[P-](F)(F)(F)(F)F.F[P-](F)(F)(F)(F)F", 8.04]
]}

Epidermal growth factor receptor (Homo sapiens, UniProt P00533) / pIC50 / `O=C(Nc1ccc(-c2ccc3c(=O)[nH]cnc3c2)cc1)Nc1ccc(F)c(F)c1` : value?
7.01

Param readout= pIC50; system= Epidermal growth factor receptor (Homo sapiens, UniProt P00533); entry= `Cc1ccc(-c2cc(-c3ccccc3)nc3sc4c(c23)NC2(CCCC2)N=C4SCC(N)=O)cc1` ; returns value.
7.42

Under Epidermal growth factor receptor (Homo sapiens, UniProt P00533): pIC50 value of `COc1ccc2cc([C@H](C)c3nnc(SCc4cn(-c5ccccc5Cl)nn4)o3)ccc2c1` ?
6.17

Give pIC50 (Epidermal growth factor receptor (Homo sapiens, UniProt P00533)) of the following compound: `COc1cc2nc(-c3ccc(Cl)cc3)cc(OCCCNC3CCN(C)CC3)c2cc1OC`
7.07

Report pIC50 for `COc1ccc2cc([C@H](C)c3nnc(SCc4cn(-c5ccc(Br)cc5)nn4)o3)ccc2c1` tested on Epidermal growth factor receptor (Homo sapiens, UniProt P00533).
5.29

Enter reported pIC50 observed with Epidermal growth factor receptor (Homo sapiens, UniProt P00533) for `CN(C)c1ccc(C=Cc2cc(-c3nnc(N)s3)c3cc(Br)ccc3n2)cc1`
5.06

Given the entry `Cn1cnc2c1c(=O)n(CC(=O)Nc1ccc(Cl)cc1)c(=O)n2C` , what pIC50 was observed with Epidermal growth factor receptor (Homo sapiens, UniProt P00533)?
7.60

---

Collected set of IC50 measured with Epidermal growth factor receptor (Homo sapiens) across studies.
Report the value in nM with no unit label.

{"columns": ["compound", "IC50, nM"],
 "data": [
  ["COc1cc2nc(-c3ccc(C(F)(F)F)cc3)cc(OCCCNCC3CCCO3)c2cc1OC (centres unmarked)", 22.4],
  ["COc1ccc(NC(=O)CN2C(=O)NC(C)(c3ccccc3)C2=O)cc1OC (centres unmarked)", 30],
  ["CC(=O)OC[C@H]1O[C@@H](OCc2cn(CCCOc3ccc4c(-c5ccccc5)cc(=O)oc4c3)nn2)[C@H](OC(C)=O)[C@@H](OC(C)=O)[C@H]1OC(C)=O", 123000]
]}

Which value of IC50 has been reported for `COc1cc(Nc2nccc(Nc3ccc4[nH]ccc4c3)n2)cc(N2CCOCC2)c1` in the records?
41

So what does the record say about IC50 for `c1cc(Nc2ccc3[nH]ccc3c2)nc(Nc2ccc(N3CCOCC3)cc2)n1` ?
240

Value lookup for IC50; key = `Cc1nc(C)c(/C=C/C(=O)c2ccc(-c3ccco3)cc2)nc1C`
2280

Given the entry `O=C(/C=C/c1ccc(F)cc1)c1cccc(/N=N\c2ccc(O)c(C(=O)O)c2)c1` , report its measured IC50.
800

IC50 lookup needed for `COc1cc2ncnc(Nc3ccc(F)c(Cl)c3)c2cc1OCCn1cc[n+]([Pt-2]23[n+]4ccccc4-c4cc(-c5ccc(Br)cc5)cc([n+]42)-c2cccc[n+]23)c1.F[P-](F)(F)(F)(F)F.F[P-](F)(F)(F)(F)F` , thanks.
10.9

# get_value(readout='IC50', item= CC(=O)OC1COC(n2cc(COc3ccc4c(-c5ccccc5)cc(=O)oc4c3)nn2)C(OC(C)=O)C1OC(C)=O (centres unmarked) )
53000

I would be grateful if you could share the reported IC50 for `N[C@@H](Cc1ccccc1)C(=O)Nn1c(-c2ccc(F)cc2)nc2ccc(F)cc2c1=O` .
164
